Attribution: patent US20120231006A1

# test target: T1, mOrai1-hOrai1 ECL2 (SPTKPPAE) protein (human/mouse chimera, UniProt Q8BWG9 1-304 (mouse entry))
# T1 construct: also called Ch
# T1 sequence (Q8BWG9 other isoform, or with tags, fused parts or gaps): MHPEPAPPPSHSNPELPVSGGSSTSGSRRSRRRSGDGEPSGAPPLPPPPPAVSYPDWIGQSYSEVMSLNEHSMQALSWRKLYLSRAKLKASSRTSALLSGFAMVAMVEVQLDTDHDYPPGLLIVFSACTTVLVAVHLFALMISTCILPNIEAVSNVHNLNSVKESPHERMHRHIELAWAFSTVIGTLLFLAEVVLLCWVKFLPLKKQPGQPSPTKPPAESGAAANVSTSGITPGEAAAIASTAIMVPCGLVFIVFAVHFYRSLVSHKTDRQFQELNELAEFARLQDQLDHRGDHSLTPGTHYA
# assay method text: flow cytometry on HEK-293 cells transfected with the chimera (loss of binding experiment)
metric name: binding result

>  <binder>
mAb 2C1.1 (antibody, human IgG2, lambda, V domains shown, fully human IgG2 lambda, Campaign 1; tested hybridoma-purified and recombinant; also called anti-hOrai1 mAb 2C1.1) VH: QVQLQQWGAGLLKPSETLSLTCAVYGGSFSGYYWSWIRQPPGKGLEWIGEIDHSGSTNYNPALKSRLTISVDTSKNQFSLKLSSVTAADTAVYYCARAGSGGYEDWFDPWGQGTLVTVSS VL: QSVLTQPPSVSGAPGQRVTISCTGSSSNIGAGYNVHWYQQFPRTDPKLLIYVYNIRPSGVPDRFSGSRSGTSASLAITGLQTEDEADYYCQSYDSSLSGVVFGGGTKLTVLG

>  <metric name>
binding result

>  <value measured>
no binding

$$$$
>  <binder>
mAb 5F2.1 (antibody, human IgG2, lambda, V domains shown, fully human IgG2 lambda, Campaign 2) VH: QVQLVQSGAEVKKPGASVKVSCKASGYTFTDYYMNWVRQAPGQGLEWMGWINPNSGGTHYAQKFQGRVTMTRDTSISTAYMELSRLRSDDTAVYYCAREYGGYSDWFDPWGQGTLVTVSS VL: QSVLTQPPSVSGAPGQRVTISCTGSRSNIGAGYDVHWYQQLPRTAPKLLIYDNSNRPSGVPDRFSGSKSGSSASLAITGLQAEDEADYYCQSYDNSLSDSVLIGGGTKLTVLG

>  <metric name>
binding result

>  <value measured>
no binding

$$$$
>  <binder>
mAb 2B7.1 (antibody, human IgG2, V domains shown, fully human, Campaign 1) VH: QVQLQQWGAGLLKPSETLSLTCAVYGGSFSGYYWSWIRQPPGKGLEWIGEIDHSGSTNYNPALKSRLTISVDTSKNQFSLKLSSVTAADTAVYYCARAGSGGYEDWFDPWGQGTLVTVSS VL: QSVLTQPPSVSGAPGQRVTISCTGSSSNIGTGYNVHWYQQFPRTDPKLLIYVYNIRPSGVPDRFSGSRSGTSASLAITGLQTEDEADYYCQSYDSSLSGVVFGGGTKLTVLG

>  <metric name>
binding result

>  <value measured>
no binding

$$$$
